system: HCT-116 (colon); assay: MTT assay of cell viability; settings: Homo sapiens, HCT-116, 72 h
readout_type: IC50 (µM)
Enter your answer as a number in µM; do not include the unit.

### Prompt Tell me IC50 reported for COc1cccc2c1C(=O)c1c(O)c3c(c(O)c1C2=O)C[C@@](O)(C(=O)CO)C[C@@H]3O[C@H]1C[C@H](N)[C@H](O)[C@H](C)O1 [Doxorubicin, reference compound]
### Response 0.9

----------
System: MCF-7 cells
Assay: PARP-1 inhibition in vitro: MTT after Fluzoparib pretreatment
Assay type: cell-based, human
Conditions: Homo sapiens, MCF7; MCF-7, compound alone (no preincubation), 72 h MTT; read-out: IC50
Procedure: Taking into account the above data, PARP1 inhibition in vitro was investigated using pretreatment of the MCF-7 cells with the Fluzoparib, a potent PARP1 inhibitor in the non-toxic concentrations of 5, 10, and 15 µM. It had no significant growth inhibitory effect in such doses, and a reduction of cell viability by only 10–12% was observed compared to control (non-treated) cells. […]
readout_type: pIC50
Convention used: pIC50 is expressed as -log10 of the molar concentration.

### Prompt Tell me pIC50 reported for Cc1nc(Nc2ccccn2)sc1C(=O)/C=C/c1ccccc1F
### Response 5.41

Data provenance is paper PMC9570594.
